Reported IC50 values follow for various compounds
Target: human A3 receptor (Homo sapiens, UniProt P0DMS8)
Construct: expressed in transfected cells; host or cells: CHO
Sequence (P0DMS8 1-318): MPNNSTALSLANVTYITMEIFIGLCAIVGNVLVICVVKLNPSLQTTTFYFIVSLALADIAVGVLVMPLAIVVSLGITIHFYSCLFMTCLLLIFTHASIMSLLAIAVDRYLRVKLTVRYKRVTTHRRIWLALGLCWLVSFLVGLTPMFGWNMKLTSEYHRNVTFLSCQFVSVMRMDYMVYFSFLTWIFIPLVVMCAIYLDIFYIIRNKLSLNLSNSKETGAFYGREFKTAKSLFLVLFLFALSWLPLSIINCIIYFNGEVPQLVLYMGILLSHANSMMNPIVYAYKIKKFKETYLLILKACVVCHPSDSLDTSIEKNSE
Test: Functional A3 receptor activity, recombinant CHO cells, cAMP (HTRF), forskolin, agonist IB-MECA
Format: cell-based
Settings: recombinant CHO cells, forskolin, agonist IB-MECA; read-out: Functional A3 receptor activity, CHO, cAMP, IC50

// solved cases for IC50 follow
- compound: "COc1nc(F)c(C2CCOCC2)c2sc(NC(=O)C3CC3)nc12 [Compound 28]"
  observable: "IC50"
  result: "< 1000 nM"
- compound: "COc1nc(F)c(-c2ccccc2)c2sc(NC(=O)C34CC(C(=O)N(C)CCO)(C3)C4)nc12 [Compound 101]"
  observable: "IC50"
  result: "> 1000 nM"

// below: IC50 requested for another compound
Q: // query IC50 value for entry COc1ncc(C2=CCC(OC)CC2)c2sc(NC(=O)N3CC[C@]4(CCCOC4)C3)nc12 (stereo partly drawn) [Compound 70]
Result: > 1000 nM

###

Target: human A2B receptor (Homo sapiens, UniProt P29275)
Construct: expressed in transfected cells; host or cells: HEK293
Sequence (P29275 whole entry): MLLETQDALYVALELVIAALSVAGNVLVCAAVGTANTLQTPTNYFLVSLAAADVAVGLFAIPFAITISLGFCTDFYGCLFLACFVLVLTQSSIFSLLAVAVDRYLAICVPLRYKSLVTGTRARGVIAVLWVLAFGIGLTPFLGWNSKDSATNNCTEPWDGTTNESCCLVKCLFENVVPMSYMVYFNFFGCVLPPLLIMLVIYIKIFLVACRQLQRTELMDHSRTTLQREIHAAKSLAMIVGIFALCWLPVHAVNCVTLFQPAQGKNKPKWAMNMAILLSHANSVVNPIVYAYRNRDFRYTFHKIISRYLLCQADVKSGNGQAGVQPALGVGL
Test: Functional A2B receptor activity, recombinant HEK293 cells, cAMP (HTRF), agonist NECA
Type: cell-based
Conditions: read-out: Functional A2B receptor activity, HEK293, cAMP, IC50
observable: IC50

- compound: "COc1cnc(N2CCOCC2)c2sc(NC(=O)N3CCC(CO)CC3)nc12 [drawing 188, reference compound]"
  target.system: "human A2B receptor (Homo sapiens, UniProt P29275)"
  IC50: "< 1000 nM"
- compound: "COc1ncc(C2=CC(=O)CC2)c2sc(NC(=O)N3CCC4(CCOCC4)C3)nc12"
  target.system: "human A2B receptor (Homo sapiens, UniProt P29275)"
  IC50: "< 100 nM"
- compound: "COc1ncc(C2=CCOCC2)c2sc(NC(=O)c3ccc(C(=O)O)cc3)nc12"
  target.system: "human A2B receptor (Homo sapiens, UniProt P29275)"
  IC50: "< 10 nM"

Moving on to the next compound.
Q: Reported IC50 for human A2B receptor (Homo sapiens, UniProt P29275), given COc1ncc(C2=CCOCC2)c2sc(NC(=O)N3CCC(C(N)=O)CC3)nc12 ?
Result: < 100 nM

Values were extracted from patent US12344623B2.
